Reference source for all entries: ChEMBL document CHEMBL1201862

- System: Hs-578T
- procedure summary: NCI tumour cell line growth inhibition, 48 h
Activity calls are given as the source filed them. No stated cut-off is given here; in the data, active = GI50 up to about 1.1 µM and inactive = higher.
Can you answer with just one of these options? class 1 = active, class 0 = inactive

QUERY: Recorded call for O=C1C(c2c(O)[nH]c3ccc(F)cc23)=Nc2ccccc21 ?
RESULT: class 0

QUERY: Recorded call for CCC(=O)NCCc1c[nH]c2ccc(OC)cc12 ?
RESULT: class 0

QUERY: Recorded call for Cc1cc(NC(=O)NC(=O)c2ccccc2NC(=O)CN(C)C)ccc1Oc1ncc(Br)cn1 ?
RESULT: class 0

QUERY: Recorded call for Cc1cc(C)n(-c2nc(-n3nc(C)cc3C)nc(-n3nc(C)cc3C)n2)n1 ?
RESULT: class 0

QUERY: Recorded call for O=C(O)C(O)C(O)C(O)C(O)CO.[Ba+2] (stereo not given) ?
RESULT: class 0

QUERY: Recorded call for CCCC(=O)Nc1cc(/C=C/C(=O)N2CC(CCl)c3c2cc(OCc2ccccc2)c2[nH]cc(C)c32)n(C)c1 (stereo not given) ?
RESULT: class 1

QUERY: Recorded call for CO/N=C1\CC(C)N2C(=O)C(C(C)C)NC(=O)C(NC(=O)c3c4nc5c(C(=O)NC6C(=O)NC(C(C)C)C(=O)N7C(C)CC(O)C7C(=O)N(C)CC(=O)N(C)C(C(C)C)C(=O)OC6C)ccc(C)c5oc-4c(C)c(=O)c3N)C(CO)OC(=O)C(C)N(C)C(=O)CN(C)C(=O)C12 (stereo not given) ?
RESULT: class 1

QUERY: Recorded call for CC1CC/C(=C\c2ccc(F)cc2)C2=C1C(c1ccc(F)cc1)N1C(=O)CSC1=N2 (stereo not given) ?
RESULT: class 0

QUERY: Recorded call for N#Cc1c(O)c(/N=N/c2ccccc2F)c(=O)n2c1[nH]c1ccccc12 ?
RESULT: class 0

QUERY: Recorded call for COC(=O)C1CCC(=S)N1C(=O)c1ccccc1 (stereo not given) ?
RESULT: class 0

QUERY: Recorded call for COc1ccc2c(c1)/C(=C/CCN(C)C)c1ccccc1S2 ?
RESULT: class 0

QUERY: Recorded call for Oc1ccc2ccccc2c1/C=N/Cc1c(O)ccc2ccccc12 ?
RESULT: class 0

QUERY: Recorded call for Cc1nc2c(c(N3CCN(C)CC3)n1)Cc1ccccc1-2 ?
RESULT: class 0

QUERY: Recorded call for O=Cc1c(C(=O)O)[nH]c(=O)[nH]c1=O ?
RESULT: class 0

QUERY: Recorded call for CO[C@@H]1[C@@H](OC2OC(C)C(OC3CC(C)(O)C(OC(=O)CC(C)C)C(C)O3)C(N(C)C)C2O)[C@@H](CC=O)C[C@@H](C)C(=O)/C=C/C2O[C@H]2C[C@@H](C)OC(=O)C[C@H]1OC(C)=O (stereo not given in full) ?
RESULT: class 0

###

- System: SNB-19
- procedure summary: NCI tumour cell line growth inhibition, 48 h
Activity calls are given as the source filed them. No stated cut-off is given here; in the data, active = GI50 up to about 1.1 µM and inactive = higher.
Can you answer with just one of these options? Yes for active, No for inactive

QUERY: Recorded call for Cc1ccc(-c2nc(-c3cnccn3)n(C3OC(CO)C(O)C(O)C3O)n2)cc1 (stereo unspecified) ?
RESULT: No

QUERY: Recorded call for CCCCCC/C(CC(=O)CCC(=O)NCCc1ccccc1)=N\NC(=O)c1ccc2ccccc2c1O ?
RESULT: No

QUERY: Recorded call for O=C(c1ccc(O)cc1)C1c2c3c(cc(O)c2C(c2ccc(O)cc2)C1c1cc(O)cc(O)c1)OC(c1ccc(O)cc1)C3c1cc2c(cc1O)OC(c1ccc(O)cc1)C2c1cc(O)cc(O)c1 (stereo unspecified) ?
RESULT: No

QUERY: Recorded call for CC(C1=CC=C2[C@@H]3CCC4CC(N(C)C)CC[C@]4(C)C3CC[C@]12C)N(C)C=O (stereo partly specified) ?
RESULT: No

QUERY: Recorded call for COC(=O)c1sc(=NC(=S)N2CCCCC2)sc1C(=O)OC ?
RESULT: No

QUERY: Recorded call for C=CCCC1CCCNC1=S (stereo unspecified) ?
RESULT: No

QUERY: Recorded call for CC1(C)N=c2c(ncn2N)=C(C(N)=O)N1 ?
RESULT: No

QUERY: Recorded call for CCOC(=O)/C([O-])=C(\C(=O)OCC)[n+]1c(C)n(C)c2ccccc21 ?
RESULT: No

QUERY: Recorded call for Cc1c2ccccc2cc2cccc[n+]12 ?
RESULT: No

QUERY: Recorded call for COc1ccc(/C(Cl)=C(\CNc2ccccn2)c2ccccc2)cc1OC ?
RESULT: No

QUERY: Recorded call for COC(=O)c1ccc2c(c1)CCN2C(=O)c1cc2c(cc1Br)OCO2 ?
RESULT: Yes

###

- Test system: DU-145
- procedure summary: NCI tumour cell line growth inhibition, 48 h
Activity calls are given as the source filed them. Cut-off read from the data, not from the text of the source: active = GI50 up to about 1.1 µM and inactive = higher.
Would you mind telling me the reported GI50 of each entry?

QUERY: Report GI50 for CCOC(=O)C(Cc1cc(OC)c(CC(C(=O)OCC)C(=O)OCC)cc1OC)C(=O)OCC tested on DU-145.
RESULT: > 100 µM (inactive)

QUERY: Report GI50 for COc1ccc2c(c1O)C13CCN(C)C(C2)C1CCC1(C3)OCCO1 (stereo not drawn) tested on DU-145.
RESULT: > 100 µM (inactive)

QUERY: Report GI50 for Cc1ccc(-c2n[nH]c(=O)n2/N=C\c2ccccc2O)cc1 tested on DU-145.
RESULT: > 100 µM (inactive)

QUERY: Report GI50 for CNC1C(O)C(OC2C(N)CC(N)C(OC3OC(CN)=CCC3N)C2O)OCC1(C)O (stereo not drawn) tested on DU-145.
RESULT: > 100 µM (inactive)

QUERY: Report GI50 for CC1=CCC[C@@H]2[C@@](C)(Cc3cc(O)ccc3O)[C@H](C)CC[C@@]12C tested on DU-145.
RESULT: 10.3 µM (inactive)

QUERY: Report GI50 for CCOC(CNc1nn2c(C)nnc2s1)OCC tested on DU-145.
RESULT: > 100 µM (inactive)

QUERY: Report GI50 for COC(=O)c1cc(C)n(CN(Cn2nc(C(=O)OC)cc2C)c2ccccc2)n1 tested on DU-145.
RESULT: 25.9 µM (inactive)

QUERY: Report GI50 for N[C@@H]1CCN(c2c(F)cc3c(=O)c(C(=O)O)cn4c3c2Oc2c-4ccc3c2ccc2ccccc23)C1 tested on DU-145.
RESULT: 3.81 µM (inactive)

QUERY: Report GI50 for CSc1ccc(/C=C2\N=C(c3ccccc3)N(/N=C/c3cc4cc(C)ccc4nc3Cl)C2=O)cc1 tested on DU-145.
RESULT: 17.8 µM (inactive)

QUERY: Report GI50 for C=CCn1c(=O)c(-c2ccccc2)c(O)c2ccccc21 tested on DU-145.
RESULT: > 100 µM (inactive)

QUERY: Report GI50 for Cc1cc(N)ccc1/N=N\c1ccc(S(=O)(=O)CCOS(=O)(=O)O)cc1 tested on DU-145.
RESULT: 26 µM (inactive)

QUERY: Report GI50 for CC(C)(C)c1ccc(O)c(C(O)c2cccnc2)c1 (stereo not drawn) tested on DU-145.
RESULT: > 100 µM (inactive)

QUERY: Report GI50 for CC1(C)CC2(C)CC1CC2(O)c1ccccc1 (stereo not drawn) tested on DU-145.
RESULT: > 100 µM (inactive)

QUERY: Report GI50 for O=C1/C(=C/c2ccccc2O)N=C(c2ccccc2)N1c1nc2ccccc2s1 tested on DU-145.
RESULT: 27.3 µM (inactive)

QUERY: Report GI50 for Cc1ccc2c3c4c(ccc13)C(C)(C)OC4=C(C(C)C)C2=O tested on DU-145.
RESULT: > 100 µM (inactive)

QUERY: Report GI50 for N#Cc1c(O)c(/N=N/c2ccccc2F)c(=O)n2c1[nH]c1ccccc12 tested on DU-145.
RESULT: 42.4 µM (inactive)

QUERY: Report GI50 for COC(=O)/C=C\[C@@H]1[C@H](C)N1S(=O)(=O)c1ccc(C)cc1 (stereo partly drawn) tested on DU-145.
RESULT: > 100 µM (inactive)

QUERY: Report GI50 for CC(C)c1cc(C(F)(F)F)nc(NNc2nc(C(C)C)cc(C(F)(F)F)n2)n1 tested on DU-145.
RESULT: > 100 µM (inactive)

###

- Tested on: IGROV-1
- procedure summary: NCI tumour cell line growth inhibition, 48 h
Calls of active or inactive are those of the source. Cut-off read from the data, not from the text of the source: active = GI50 up to about 1.1 µM and inactive = higher.
measured property: GI50

QUERY: Can you share its GI50? I mean this compound: CC(C)=CCC/C(C)=C/CC/C(C)=C/C1CCC(=O)C1(C)C (stereo not drawn)
RESULT: 19.1 µM (inactive)

QUERY: Can you share its GI50? I mean this compound: CCOC(=O)[C@H]1Nc2c(cccc2[N+](=O)[O-])C2c3ccccc3CC21 (stereo partly drawn)
RESULT: > 100 µM (inactive)

QUERY: Can you share its GI50? I mean this compound: CC(C)c1cc(C(F)(F)F)nc(NNc2nc(C(C)C)cc(C(F)(F)F)n2)n1
RESULT: > 100 µM (inactive)

QUERY: Can you share its GI50? I mean this compound: N=C1OC(CN2CCN(c3ccccc3)CC2)CN1C(=S)Nc1ccccc1 (stereo not drawn)
RESULT: 92.7 µM (inactive)

QUERY: Can you share its GI50? I mean this compound: Cc1sc2nc(N(C)C)oc(=O)c2c1C
RESULT: > 100 µM (inactive)

QUERY: Can you share its GI50? I mean this compound: N#CCCN(c1ccc(-c2nnc(NC(=O)CNNC(=O)CC(=O)Nc3ccccc3)s2)cc1)S(=O)(=O)c1ccccc1
RESULT: > 100 µM (inactive)

QUERY: Can you share its GI50? I mean this compound: Cc1n[nH]c(=O)n1N1C(=O)CCCC1=O
RESULT: > 100 µM (inactive)

QUERY: Can you share its GI50? I mean this compound: CC(C)=Cc1cc(CCC/C(C)=C/Cc2c(O)cc(C)c(C(=O)O)c2O)co1
RESULT: > 100 µM (inactive)
